# System: MDA-MB-231
# protocol-description: NCI tumour cell line growth inhibition, 48 h
Active and inactive are the calls of the source. No stated cut-off is given here; in the data, active = GI50 up to about 1.1 µM and inactive = higher.
Consider the following compounds; for each one, report its GI50.

Record CCO/C=N\c1c(C#N)c(-c2ccc(Cl)cc2)cn1-c1ccc(C)cc1 , field GI50: > 100 µM (inactive)

Record Cc1cc2c([N+](=O)[O-])cc3c(c2o1)C(=O)C=CC3=O , field GI50: 18.7 µM (inactive)

Record O=C1/C(=C/c2cccc(Br)c2)CSC/C1=C\c1cccc(Br)c1 , field GI50: 4.2 µM (inactive)

Record CN(Cc1cccc2ccsc12)/N=C\c1ccc(Cl)cc1 , field GI50: > 100 µM (inactive)

Record Cc1cc2c(c(=O)n1C)SCC2 , field GI50: > 100 µM (inactive)

Record COC(=O)c1cc(CC2Cc3cc4c(cc3C2=O)CCC4)cc2c1CCC2 (stereo unspecified) , field GI50: > 100 µM (inactive)

// provenance: ChEMBL document CHEMBL1201862
